B1: TPR t1 (parent)
chain: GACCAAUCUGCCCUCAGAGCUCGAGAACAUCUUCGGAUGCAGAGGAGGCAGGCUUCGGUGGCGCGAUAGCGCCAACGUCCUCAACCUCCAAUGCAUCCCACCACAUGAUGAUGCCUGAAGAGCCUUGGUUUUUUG

- Variants of: B1
- assay.procedure: polymerase ribozyme fitness, log enrichment relative to wild type (log ratio); higher = more active; in vitro selection for triplet polymerase activity
Binary call on polymerase ribozyme fitness (log ratio): yes (1) from -2 upward, no (0) beneath that.

• GACCAAUCUGCCCUCAGAGUUCGAGAACAUCUUCGGAUGCAGAGGAGGCAGGCUUCGGUGGCGCGAUAGCGCCAACGUCCUCAACCUCCAAUGCAUCCCACCACAUGAUGACGCCUGAAGAGCCUUGGUUUUUUG [C20U U112C] = yes (1)
• GACCAAUCUGCCCUCAGAGCUCGAGAACAUCUUCGGAUGCAGAGGAGGCAGGCUUCGGUGGCGCGAUAGCGCCAACGUCCUCAACCUCCAAUGCCUCCCACCACAUGAUGAUGCCUGAAUAGCCUUGGUUUUUUG [A95C G120U] = yes (1)
• GACCAAUGUGCCCUCAGAGCUCGAGAACAUCUUCGGAUGCAGAGGAUGCAGGCUUCAGUGGCGCGAUAGCGCAAACGUCCUCAAGCUCCAAUGCAUCCCACCACAAGAUGAUGCCUGAAGAGCCUUGGUUUUAUG [C8G G47U G57A C73A C85G U106A U133A] = no (0)
• GACCAAUCUGCCCUCAGAGCUCGAGAACAUCUUCGGAUGUCGAGGAGGCAGGCUUCGGUGGCGCGAUAGCACCAACGUCCUCAACCUCCAAUGCAUCCCACCACAUGAUGAUGCCUGAAGAGCCUUGGUUUUUUG [C40U A41C G71A] = no (0)
• GACCAAUCUGCCCUCAGAGCUCGAGAACAUCUUCGGAUGCAGAGGAGGAGGUCUUCGGUGGCGCGAUAGCGCCAACGUCCUCAACCUCCAAUGCAUCCCACCACAUGAUGAUGCCUGUAGAGCCUUGGUUUUUUG [C49A A50G G52U A118U] = yes (1)
• GACCAAUCUGCCCUCAGAGCUCGAGAACAUCUUCGGAUGCAGAGGAGGCAGGCUUCGGUGGUGCGAUAGCGCCAACGUCCUCAACCUCCAAUGCAUCCCACCACAUGAUGCUGCCUGAAGAGCCUUGGUUUUUUG [C62U A111C] = yes (1)

Problem: Does GACCAAUCUGCCCUCAGUGCUCGAGAACAUCUUCGGAUGCACAGGAGGCUGGCUUCGGUGGCGCGAUAGCGCCAACGUCCUCAACCUCCAAUGCAUCCCACCACAUGAUGAUGCCUGAAGAGCCUUGGUUUUUUG [A18U G42C A50U] have a reported polymerase ribozyme fitness (log ratio) of at least -2?
Result: no (0)

Problem: Does GACCAAUCUGCCCUCAGAGCUCGAGAACAUCUUCGGAUGCACAGGAGGCAGGCUUCGGUGGCGCGAUAGCGCCAACGUCCUCAACCUCCAAUGCAUCCCACCACAUGAUGAUGCCUGAAUAGCCUUGGUUUUUUG [G42C G120U] have a reported polymerase ribozyme fitness (log ratio) of at least -2?
Result: yes (1)

Problem: Does GACUAAUCUGCCCUCAGAGCUCGAGAACAUCUUCGGAUGCAGAGGAGGCAGGCUUCGGAGGCGCGAUAGCGCCAACGUCCUCAACCUCCAAUGCAUCCCACCACAUGAUGAUGCCUGAAGAGCCUUGGUUUUUUG [C4U U59A] have a reported polymerase ribozyme fitness (log ratio) of at least -2?
Result: yes (1)

Problem: Does GACCAAUCUGCCCUCAGAGCUCGAGAACAUCUUCGGAUGCAGAGGAGGCAGGCUUCGGUGGCGCGAUAGCGCCAACGUCCUCAACCUCCAAUGCAUUCCACCACAUGAUGAUGCCUGAAGAGCCAUGGUUUUUUG [C97U U125A] have a reported polymerase ribozyme fitness (log ratio) of at least -2?
Result: yes (1)

Problem: Does GACCAAUCUGCCCUCAGAGGUCGAGAACAUCUUCGGAUGCAGAGGAGGCAGGCUUCGGUGGUGCGAUAGCGCCAACGUCCUCAACCUCCAAUGCAUCCCACCACAUGAUGAUGCCUGAAGAGCCUUGGUUUUUUG [C20G C62U] have a reported polymerase ribozyme fitness (log ratio) of at least -2?
Result: no (0)

Problem: Does GACCAAUCUGCCCUCAGAGGUCGAGAACAUCUUCGGAUGAAGAGGAGGCAGGCUUCGGUGGCGCGGUAGCACCAACGUCCUCAACCUCCAAUUCAUCCCACCACAUGAUGACGCCUGAAGAGCCUUGGUUUUUUG [C20G C40A A66G G71A G93U U112C] have a reported polymerase ribozyme fitness (log ratio) of at least -2?
Result: no (0)

Problem: Does GACCAAUCUGCCCUCAGAGCUCGAGAACAUCUUCGGAUGCAAAGGAGGCAGGCUUCGGUGGCGCGAUAGCGACAACGUCCUCAACCUCCAAUGCAUCCCACCAAAUGAUGAUGCCUGAAGAGCCUUGGUCUUUUG [G42A C72A C104A U130C] have a reported polymerase ribozyme fitness (log ratio) of at least -2?
Result: no (0)
